# Tested on: Plasminogen (Homo sapiens, UniProt P00747)
# Sequence (P00747 97-580 limits assumed): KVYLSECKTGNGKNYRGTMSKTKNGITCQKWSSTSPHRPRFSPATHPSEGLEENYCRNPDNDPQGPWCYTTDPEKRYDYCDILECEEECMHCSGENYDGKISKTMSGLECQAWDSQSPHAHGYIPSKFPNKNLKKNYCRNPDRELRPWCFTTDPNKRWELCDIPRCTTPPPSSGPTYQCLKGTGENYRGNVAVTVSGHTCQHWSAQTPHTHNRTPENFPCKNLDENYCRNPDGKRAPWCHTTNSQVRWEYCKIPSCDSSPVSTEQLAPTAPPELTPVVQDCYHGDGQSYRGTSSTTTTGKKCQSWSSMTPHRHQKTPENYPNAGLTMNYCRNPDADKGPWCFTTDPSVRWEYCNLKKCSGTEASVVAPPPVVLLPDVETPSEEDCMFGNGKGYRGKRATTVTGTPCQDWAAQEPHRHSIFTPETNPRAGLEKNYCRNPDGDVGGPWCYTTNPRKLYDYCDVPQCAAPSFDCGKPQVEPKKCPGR
# Sequence (P00747 581-810 limits assumed): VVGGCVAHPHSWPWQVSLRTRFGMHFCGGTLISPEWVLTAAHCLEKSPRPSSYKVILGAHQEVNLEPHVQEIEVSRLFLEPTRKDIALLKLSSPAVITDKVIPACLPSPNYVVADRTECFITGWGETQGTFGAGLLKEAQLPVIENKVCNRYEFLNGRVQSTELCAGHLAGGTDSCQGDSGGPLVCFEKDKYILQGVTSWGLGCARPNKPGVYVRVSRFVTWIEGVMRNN
Endpoint: Ki (µM)
Give the number; µM is assumed, so skip it.

| Smiles text | Tested on | Unit annotation | Ki |
| --- | --- | --- | --- |
| NCc1ccc(CNC(=O)CCC(=O)NCc2ccc(CNC(=O)CCC(=O)NCc3ccc(CN)cc3)cc2)cc1 | Plasminogen (Homo sapiens, UniProt P00747) | µM | 769 |

Observed Ki, Plasminogen (Homo sapiens, UniProt P00747), C[C@H](NC(=O)OCc1ccc(COC(=O)N[C@@H](C)C(=O)NCc2ccc(CN)cc2)cc1)C(=O)NCc1ccc(CN)cc1 : 83

Let me check: N=C(N)Nc1ccc(CNC(=O)N2CCN(C(=O)O[C@H]3CCC[C@@H](OC(=O)N4CCN(C(=O)NCc5ccc(NC(=N)N)cc5)CC4)CCC3)CC2)cc1 , system Plasminogen (Homo sapiens, UniProt P00747), measured Ki is 494

----------
# Tested on: Tryptase beta-1 (Homo sapiens)
# Sequence (Q15661 whole entry): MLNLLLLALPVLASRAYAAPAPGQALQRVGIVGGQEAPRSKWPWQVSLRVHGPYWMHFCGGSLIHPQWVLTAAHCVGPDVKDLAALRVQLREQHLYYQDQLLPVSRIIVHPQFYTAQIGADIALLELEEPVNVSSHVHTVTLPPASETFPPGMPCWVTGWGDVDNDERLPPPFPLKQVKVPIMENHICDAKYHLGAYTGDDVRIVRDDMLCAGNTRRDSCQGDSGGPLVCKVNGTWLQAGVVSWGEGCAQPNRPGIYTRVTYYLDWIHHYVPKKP
Endpoint: pKi
Lab note: report pKi as minus log10 of the concentration in molar units, number only.

Record O=C(NCc1ccccc1)N1CCN(C(=O)O[C@H]2CCC[C@@H](OC(=O)N3CCN(C(=O)NCc4ccccc4)CC3)CCC2)CC1 has Tryptase beta-1 (Homo sapiens) pKi equal to 4.00

Item NCc1ccc(CNC(=O)CNC(=O)OCc2ccc(COC(=O)NCC(=O)NCc3ccc(CN)cc3)cc2)cc1 ; assay system Tryptase beta-1 (Homo sapiens); pKi reported as 9.22

The reported Tryptase beta-1 (Homo sapiens) pKi of NCc1ccc(CNC(=O)CC(=O)NCc2ccc(CNC(=O)CC(=O)NCc3ccc(CN)cc3)cc2)cc1 is 6.82

N=C(N)Nc1ccc(CNC(=O)CCCC(=O)NCc2ccc(CNC(=O)CCCC(=O)NCc3ccc(NC(=N)N)cc3)cc2)cc1 on Tryptase beta-1 (Homo sapiens) gives pKi = 7.00

NCc1ccc(CNC(=O)CCC(=O)NCc2ccc(CNC(=O)CCC(=O)NCc3ccc(CN)cc3)cc2)cc1 on Tryptase beta-1 (Homo sapiens) gives pKi = 8.52

// pKi (Tryptase beta-1 (Homo sapiens)) for CN(Cc1ccc(CN(C)C(=O)CCC(=O)NCc2ccc(CN)cc2)cc1)C(=O)CCC(=O)NCc1ccc(CN)cc1 = 8.30

Entry NC(N)=Nc1ccc(CNC(=O)CNC(=O)OCc2ccc(COC(=O)NCC(=O)NCc3ccc(N=C(N)N)cc3)cc2)cc1 , Tryptase beta-1 (Homo sapiens) data, pKi value: 8.00

Considering CN(Cc1ccc(CN)cc1)C(=O)CCC(=O)NCc1ccc(CNC(=O)CCC(=O)N(C)Cc2ccc(CN)cc2)cc1 , its pKi with Tryptase beta-1 (Homo sapiens) was recorded as 5.70
